subject of test: PDGFRβ (Homo sapiens)
Construct: made in house
experiment description: Competition binding assay, PDGFRβ Kd
condition info: competition binding
pKd: −log10 of the molar value.
assay readout: pKd

# pKd (compound: `O[C@@H]1CCCC[C@H]1Nc1nc2ccc(Cn3cnc4cc(F)cc(F)c43)cc2s1` ) is 6.30 to 7.30

# pKd (compound: `O[C@@H]1CCCC[C@H]1Nc1nc2c(Cl)cc(Cc3cnc4ccc(N5CCOCC5)nn34)cc2s1` ) is 5.70 to 6.30

# pKd (compound: `O[C@@H]1CCCC[C@H]1Nc1nc2ccc(Cn3cnc4cc(OCCN5CCOCC5)ccc43)cc2s1` ) is ≥ 7.30

# pKd (compound: `O[C@@H]1CCCC[C@H]1Nc1nc2c(Br)cc(Cn3cnc4cccnc43)cc2s1` ) is < 5.70

# pKd (compound: `O[C@@H]1CCCC[C@H]1Nc1nc2ccc(Cn3cnc4cccnc43)c(F)c2s1` ) is 5.70 to 6.30

# pKd (compound: `O[C@@H]1CCCC[C@H]1Nc1nc2ccc(Cn3cnc4cc(-n5cccn5)cnc43)cc2s1` ) is ≥ 7.30

# pKd (compound: `CN1CCN(c2ccn3c(Cc4ccc5nc(N[C@@H]6CCCC[C@H]6O)sc5c4)cnc3c2)CC1` ) is 5.70 to 6.30

# pKd (compound: `O[C@@H]1CCCC[C@H]1Nc1nc2ccc(Cc3cnc4cc(-n5cncn5)ccn34)cc2s1` ) is 6.30 to 7.30

# pKd (compound: `Cc1cc2ncn(Cc3ccc4nc(N[C@@H]5CCCC[C@H]5O)sc4c3)c2cc1C` ) is ≥ 7.30

# pKd (compound: `O[C@@H]1CCCC[C@H]1Nc1nc2c(F)cc(Cn3cnc4cccnc43)c(F)c2s1` ) is < 5.70

# pKd (compound: `N#Cc1cnc2c(c1)ncn2Cc1ccc2nc(N[C@@H]3CCCC[C@H]3CO)sc2c1` ) is 6.30 to 7.30

# pKd (compound: `N#Cc1ccc2ncc(Cc3ccc4nc(N[C@@H]5CCCC[C@H]5O)sc4c3)n2n1` ) is ≥ 7.30

# pKd (compound: O[C@H]1CCCCC1Nc1nc2ccc(Cn3cnc4cc(F)cnc43)cc2s1 (stereo in doubt) ) is ≥ 7.30

# pKd (compound: `N#Cc1ccn2c(Cc3ccc4nc(N[C@@H]5CCCC[C@H]5O)sc4c3)cnc2c1` ) is 6.30 to 7.30

# pKd (compound: `O=C(c1ccn2c(Cc3ccc4nc(N[C@@H]5CCCC[C@H]5O)sc4c3)cnc2c1)N1CCCC1` ) is 6.30 to 7.30

# pKd (compound: `COc1ccc2c(c1)ncn2Cc1ccc2nc(N[C@@H]3CCCC[C@H]3O)oc2c1` ) is ≥ 7.30

# pKd (compound: `Fc1cnc2c(c1)ncn2Cc1ccc2nc(N[C@@H]3CCCC[C@H]3Cl)sc2c1` ) is ≥ 7.30

# pKd (compound: `OC[C@H]1CCCC[C@H]1Nc1nc2ccc(Cn3cnc4cc(Br)cnc43)cc2s1` ) is ≥ 7.30

# pKd (compound: `OCc1ccc2ncc(Cc3ccc4nc(N[C@@H]5CCCC[C@H]5O)sc4c3)n2n1` ) is 6.30 to 7.30

# pKd (compound: `O[C@@H]1CCCC[C@H]1Nc1nc2ccc(Cn3cnc4cnc(C(F)(F)F)nc43)cc2s1` ) is 5.70 to 6.30

# pKd (compound: `O[C@@H]1CCCC[C@H]1Nc1nc2ccc(Cn3cnc4ccc(Br)cc43)cc2s1` ) is 6.30 to 7.30

# pKd (compound: `O[C@@H]1[C@H](O)CCC[C@H]1Nc1nc2ccc(Cn3cnc4cc(-n5cncn5)cnc43)cc2s1` ) is ≥ 7.30

# pKd (compound: `Cn1nnnc1-c1cnc2c(c1)ncn2Cc1ccc2nc(N[C@@H]3CCCC[C@H]3O)sc2c1` ) is ≥ 7.30

# pKd (compound: `C=C(c1ccc2c(c1)ncn2Cc1ccc2nc(N[C@@H]3CCCC[C@H]3O)sc2c1)C(F)(F)F` ) is 6.30 to 7.30

# pKd (compound: `O[C@@H]1CCCC[C@H]1Nc1nc2ccc(Cc3cnc4[nH]c5ccccc5n34)cc2s1` ) is 6.30 to 7.30

# pKd (compound: `OC[C@H]1CC[C@@H](Nc2nc3ccc(Cn4cnc5cc(F)cnc54)cc3s2)CC1` ) is 6.30 to 7.30

# pKd (compound: `N#Cc1ccc2c(c1)ncn2Cc1ccc2nc(N[C@@H]3CCCC[C@H]3O)sc2c1` ) is 5.70 to 6.30

# pKd (compound: `CC(=O)c1ccn2c(Cc3ccc4nc(N[C@@H]5CCCC[C@H]5O)sc4c3)cnc2c1` ) is 6.30 to 7.30

# pKd (compound: `O[C@H]1CCCC[C@H]1Nc1nc2ccc(Cn3cnc4cc(F)cnc43)cc2s1` ) is 6.30 to 7.30

# pKd (compound: `CC(=O)c1ccc2c(c1)ncn2Cc1ccc2nc(N[C@@H]3CCCC[C@H]3O)sc2c1` ) is 6.30 to 7.30

# pKd (compound: `Cn1nnc(-c2ccc3c(c2)ncn3Cc2ccc3nc(N[C@@H]4CCC[C@@H](O)[C@H]4O)sc3c2)n1` ) is 6.30 to 7.30

# pKd (compound: `N#Cc1ccc2c(c1)ncn2Cc1ccc2nc(N[C@@H]3CCCC[C@H]3O)oc2c1` ) is 5.70 to 6.30

* * *

subject of test: PDGFRβ (Homo sapiens, UniProt P09619)
Construct: made in house
Sequence (P09619 33-1106): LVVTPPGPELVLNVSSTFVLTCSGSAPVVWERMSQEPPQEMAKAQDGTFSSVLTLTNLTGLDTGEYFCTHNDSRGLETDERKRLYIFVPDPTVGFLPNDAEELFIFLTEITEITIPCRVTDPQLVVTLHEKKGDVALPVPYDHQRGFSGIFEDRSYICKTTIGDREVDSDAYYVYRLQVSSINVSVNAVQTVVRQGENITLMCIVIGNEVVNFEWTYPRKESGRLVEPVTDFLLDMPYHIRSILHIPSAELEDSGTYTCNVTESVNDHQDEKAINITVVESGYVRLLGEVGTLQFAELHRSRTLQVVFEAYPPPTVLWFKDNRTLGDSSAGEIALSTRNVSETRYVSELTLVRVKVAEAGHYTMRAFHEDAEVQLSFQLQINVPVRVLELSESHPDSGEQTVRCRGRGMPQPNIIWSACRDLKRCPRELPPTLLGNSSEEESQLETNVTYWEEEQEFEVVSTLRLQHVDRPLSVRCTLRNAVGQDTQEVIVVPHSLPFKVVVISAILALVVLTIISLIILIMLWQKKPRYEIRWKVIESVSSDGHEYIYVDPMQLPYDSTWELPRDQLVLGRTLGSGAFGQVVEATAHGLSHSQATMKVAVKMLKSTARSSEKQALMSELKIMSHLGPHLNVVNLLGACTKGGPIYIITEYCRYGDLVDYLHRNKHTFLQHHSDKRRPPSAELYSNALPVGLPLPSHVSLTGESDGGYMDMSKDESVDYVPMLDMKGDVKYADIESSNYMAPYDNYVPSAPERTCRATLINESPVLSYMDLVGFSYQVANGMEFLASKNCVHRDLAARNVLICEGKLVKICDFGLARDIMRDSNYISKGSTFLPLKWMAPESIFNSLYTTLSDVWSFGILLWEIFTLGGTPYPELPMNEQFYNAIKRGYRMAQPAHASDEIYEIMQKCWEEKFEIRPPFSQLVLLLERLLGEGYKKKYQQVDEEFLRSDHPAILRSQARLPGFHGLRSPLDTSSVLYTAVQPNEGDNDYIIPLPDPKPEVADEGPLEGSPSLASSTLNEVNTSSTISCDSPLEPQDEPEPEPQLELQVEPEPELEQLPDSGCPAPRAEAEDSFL
experiment description: Competition binding assay, PDGFRβ Kd
condition info: competition binding
Procedure: Competition binding assays used herein were developed, validated and performed as described in Fabian et al., Nature Biotechnology 2005, 23, 329-336. […] Kds were determined using an eleven point threefold serial dilutions. […] The kinase concentration in the eluates was measured by quantitative PCR.
pKd: −log10 of the molar value. Counter-ions that a name gives are not always drawn.
For each of the compounds below, state its pKd.

# pKd (compound: Nc1nccn(Cc2ccc3nc(N[C@@H]4CCCC[C@H]4O)sc3c2)c1=O [Example 220, acetate salt] ) is 6.30 to 7.30

# pKd (compound: `O[C@@H]1CCCC[C@H]1Nc1nc2ccc(Cn3cnc4cc(F)ccc43)cc2s1` ) is ≥ 7.30

# pKd (compound: `Oc1ccc2c(c1)ncn2Cc1ccc2nc(N[C@@H]3CCCC[C@H]3O)sc2c1` ) is ≥ 7.30

# pKd (compound: `OC[C@H]1CC[C@H](Nc2nc3ccc(Cn4cnc5cc(F)cnc54)cc3s2)CC1` ) is ≥ 7.30

# pKd (compound: `Cc1cc(Br)cc2ncn(Cc3ccc4nc(N[C@@H]5CCCC[C@H]5O)sc4c3)c12` ) is 5.70 to 6.30

# pKd (compound: CC(O)c1ccn2c(Cc3ccc4nc(N[C@@H]5CCCC[C@H]5O)sc4c3)cnc2c1 (some centres unmarked) ) is 5.70 to 6.30

# pKd (compound: `CNC(=O)c1ccc2ncc(Cc3ccc4nc(N[C@@H]5CCCC[C@H]5O)sc4c3)n2n1` ) is 5.70 to 6.30

# pKd (compound: `C=Cc1cc(F)c2c(c1)ncn2Cc1ccc2nc(N[C@@H]3CCCC[C@H]3O)sc2c1` ) is ≥ 7.30

# pKd (compound: `Fc1cnc2c(c1)ncn2Cc1ccc2nc(Nc3ccccc3)sc2c1` ) is 5.70 to 6.30

# pKd (compound: `O[C@@H]1CCCC[C@H]1Nc1nc2ncc(Cn3cnc4cccnc43)cc2s1` ) is 5.70 to 6.30

# pKd (compound: `COc1ccc2ncc(Cc3ccc4nc(N[C@@H]5CCCC[C@H]5O)sc4c3)n2c1` ) is 5.70 to 6.30

# pKd (compound: `O[C@@H]1CCCC[C@H]1Nc1nc2ccc(Cc3cnc4cc(-n5nccn5)ccn34)cc2s1` ) is 5.70 to 6.30

# pKd (compound: `C=Cc1ccn2c(Cc3ccc4nc(N[C@@H]5CCCC[C@H]5O)sc4c3)cnc2c1` ) is 6.30 to 7.30

# pKd (compound: `COc1nc2c(cc1Br)ncn2Cc1ccc2nc(N[C@@H]3CCCC[C@H]3O)sc2c1` ) is ≥ 7.30

# pKd (compound: `Cn1cc(-c2ccc3c(c2)ncn3Cc2ccc3nc(N[C@@H]4CCCC[C@H]4O)sc3c2)c(C(F)(F)F)n1` ) is ≥ 7.30

# pKd (compound: `CCOc1ccc2c(c1)ncn2Cc1ccc2nc(N[C@@H]3CCCC[C@H]3O)sc2c1` ) is ≥ 7.30

# pKd (compound: `COc1ccc2ncn(Cc3ccc4nc(N[C@@H]5CCCC[C@H]5O)oc4c3)c2c1` ) is 6.30 to 7.30

# pKd (compound: CC(O)c1cnc2c(c1)ncn2Cc1ccc2nc(N[C@@H]3CCCC[C@H]3O)sc2c1 (some centres unmarked) ) is 6.30 to 7.30

# pKd (compound: `COCCOc1ccn2c(Cc3ccc4nc(N[C@@H]5CCCC[C@H]5O)sc4c3)cnc2c1` ) is 6.30 to 7.30

# pKd (compound: `O[C@@H]1CCCC[C@H]1Nc1nc2ccc(Cn3cnc4cc(C5=CCNCC5)ccc43)cc2s1` ) is ≥ 7.30

# pKd (compound: `O[C@@H]1CCCC[C@H]1Nc1nc2ccc(Cc3cnc4ccc(N5CCOCC5)nn34)cc2s1` ) is 6.30 to 7.30

# pKd (compound: `O[C@@H]1CCCC[C@H]1Nc1nc2ccc(Cn3cnc4cc(-c5cc[nH]n5)ccc43)cc2s1` ) is ≥ 7.30

# pKd (compound: `O[C@@H]1CCCC[C@H]1Nc1nc2ccc(Cn3cnc4cc(C5=CCCCC5)ccc43)cc2s1` ) is 6.30 to 7.30

# pKd (compound: `O=C(O)/C=C/c1ccc2c(c1)ncn2Cc1ccc2nc(N[C@@H]3CCCC[C@H]3O)sc2c1` ) is 6.30 to 7.30

# pKd (compound: `N#Cc1cc2ncn(Cc3ccc4nc(N[C@@H]5CCCC[C@H]5O)sc4c3)c2nc1C#N` ) is 6.30 to 7.30

# pKd (compound: `CNC(=O)c1ccc2c(c1)ncn2Cc1ccc2nc(N[C@@H]3CCCC[C@H]3O)sc2c1` ) is 6.30 to 7.30

# pKd (compound: `N#Cc1cnc2c(c1)ncn2Cc1ccc2nc(N[C@@H]3CCCC[C@H]3O)oc2c1` ) is ≥ 7.30

# pKd (compound: `O[C@@H]1CCCC[C@H]1Nc1nc2ccc(Cn3cnc4cc(-n5cccn5)ccc43)cc2s1` ) is ≥ 7.30

# pKd (compound: `N#Cc1ccc2ncn(Cc3ccc4nc(N[C@@H]5CCCC[C@H]5O)sc4c3)c2c1` ) is 5.70 to 6.30

# pKd (compound: `C=Cc1ccc2c(c1)ncn2Cc1ccc2nc(N[C@@H]3CCCC[C@H]3O)sc2c1` ) is 6.30 to 7.30

# pKd (compound: `Cc1ccc2c(c1)ncn2Cc1ccc2nc(N[C@@H]3CCCC[C@H]3O)sc2c1` ) is ≥ 7.30

# pKd (compound: `OC[C@@H]1CCCC[C@H]1Nc1nc2ccc(Cn3cnc4cc(Br)cnc43)cc2s1` ) is ≥ 7.30
